system: GST-Aq-NF-kB (Amphimedon queenslandica, UniProt A9Y5G7 2-389)
Sequence: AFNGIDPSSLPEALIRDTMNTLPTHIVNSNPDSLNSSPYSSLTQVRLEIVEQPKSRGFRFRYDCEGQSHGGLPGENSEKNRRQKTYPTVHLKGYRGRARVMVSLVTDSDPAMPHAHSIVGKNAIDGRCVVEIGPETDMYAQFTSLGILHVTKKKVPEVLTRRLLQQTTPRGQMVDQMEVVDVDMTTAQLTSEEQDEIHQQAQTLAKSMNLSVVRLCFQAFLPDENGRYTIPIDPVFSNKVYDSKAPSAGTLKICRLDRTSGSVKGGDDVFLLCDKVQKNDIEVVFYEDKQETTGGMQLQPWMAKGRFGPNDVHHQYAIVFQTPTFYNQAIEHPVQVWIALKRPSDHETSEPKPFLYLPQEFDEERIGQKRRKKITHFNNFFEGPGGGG
protocol.summary: protein-binding microarray (PBM); PBM: ~300 nM protein, 6 mM HEPES pH 7.8, 80 mM KCl, 0.5 mM EDTA, 0.5 mM EGTA, 6% glycerol, 35 ng/ul poly-dIdC, 1% milk, 1 h, room temperature; high values mean tight binding
measurement.conditions: dsDNA, one strand shown
property.name: binding signal (z-score)
// note: answer is a bare numeric in z-score

Example entries begin here.
CCGATTAACATCAGAGAAGTCCCTGATGTTAATCGGGTCTTGATTCGCTTGACGCTGCTG : 5.93
CCGATTAACATCAAGATATTCCCTGATGTTAATCGGGTCTTGATTCGCTTGACGCTGCTG : 4.02
CCGATTAACATCACAAATGGGAATGATGTTAATCGGGTCTTGATTCGCTTGACGCTGCTG : 2.36
CCGATTAACATCACCCCGTCCCCTGATGTTAATCGGGTCTTGATTCGCTTGACGCTGCTG : 4.15
CCGATTAACATCAGGGCTTTCCATGATGTTAATCGGGTCTTGATTCGCTTGACGCTGCTG : 3.39
CCGATTAACATCAACATTTTCCCTGATGTTAATCGGGTCTTGATTCGCTTGACGCTGCTG : 3.41

IN: Given the entry CCGATTAACATCACTTATCCCCCTGATGTTAATCGGGTCTTGATTCGCTTGACGCTGCTG , report its measured binding signal.
OUT: 3.72

IN: Given the entry CCGATTAACATCAGATTTACCCCTGATGTTAATCGGGTCTTGATTCGCTTGACGCTGCTG , report its measured binding signal.
OUT: 3.62

IN: Given the entry CCGATTAACATCAAAGAATCCCCTGATGTTAATCGGGTCTTGATTCGCTTGACGCTGCTG , report its measured binding signal.
OUT: 6.89

----------
system: GST-Dm-Relish (Drosophila melanogaster, UniProt Q94527 99-473)
Sequence: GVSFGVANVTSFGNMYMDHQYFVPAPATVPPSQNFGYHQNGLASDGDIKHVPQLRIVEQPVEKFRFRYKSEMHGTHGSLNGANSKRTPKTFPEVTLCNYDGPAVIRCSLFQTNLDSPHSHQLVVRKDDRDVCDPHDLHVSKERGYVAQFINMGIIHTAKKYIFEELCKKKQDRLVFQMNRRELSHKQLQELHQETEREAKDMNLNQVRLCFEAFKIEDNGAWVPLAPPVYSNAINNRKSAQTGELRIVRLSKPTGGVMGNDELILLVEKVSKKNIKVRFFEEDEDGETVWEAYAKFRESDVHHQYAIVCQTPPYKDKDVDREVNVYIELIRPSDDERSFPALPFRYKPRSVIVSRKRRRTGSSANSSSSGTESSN
protocol.summary: protein-binding microarray (PBM); PBM: ~300 nM protein, 6 mM HEPES pH 7.8, 80 mM KCl, 0.5 mM EDTA, 0.5 mM EGTA, 6% glycerol, 35 ng/ul poly-dIdC, 1% milk, 1 h, room temperature; Ap Aiptasia and Nv Nematostella (sea anemones) / Co Capsaspora / Aq Amphimedon (sponge) / Dm Drosophila / Hu human; RHD is the Rel homology domain; high values mean tight binding
measurement.conditions: dsDNA, one strand shown
property.name: binding signal (z-score)
// note: answer is a bare numeric in z-score

CCGATTAACATCAGGGGATCTACTGATGTTAATCGGGTCTTGATTCGCTTGACGCTGCTG : 9.02
CCGATTAACATCAAACTCCCCCTTGATGTTAATCGGGTCTTGATTCGCTTGACGCTGCTG : 6.54
CCGATTAACATCAGGATTTTTCATGATGTTAATCGGGTCTTGATTCGCTTGACGCTGCTG : 1.76
CCGATTAACATCAAATTCTCCCCTGATGTTAATCGGGTCTTGATTCGCTTGACGCTGCTG : 2.37

# next sequence below
IN: Given the entry CCGATTAACATCACCCCTCCCCGTGATGTTAATCGGGTCTTGATTCGCTTGACGCTGCTG , report its measured binding signal.
OUT: 3.47
